system: IGROV1 ovarian; assay: NCI-60 one-dose screen, 48 h; conditions: 10 µM unless noted
The panel holds about 83,000 compounds, 20% with a hit somewhere; the sample as a whole holds those more often. Active and inactive are the calls of the source. How the source made its calls: active means growth percent below 10; inactive means the rest.
Select the matching outcome among 1 (active), 0 (inactive)

Exercise: Returns: the outcome recorded for O=C(N/N=C/c1ccccc1SSc1ccccc1/C=N/NC(=O)c1ccccc1)c1ccccc1 in this assay.
Key: 0

Exercise: Returns: the outcome recorded for Cn1c2c(Cl)c(Cl)ccc2c2c(C#N)c[nH]c(=O)c21 in this assay.
Key: 0

Exercise: Returns: the outcome recorded for COc1cc(-c2cc(-c3nc4ccccc4[nH]3)[nH]n2)cc(OC)c1OC in this assay.
Key: 0

Exercise: Returns: the outcome recorded for COc1ccccc1CNc1nc(N)nc2[nH]c3ccc(O)cc3c12 in this assay.
Key: 0

Exercise: Returns: the outcome recorded for NC1=NN(c2ccccc2)C(=O)/C1=C/c1ccc(Cl)cc1 in this assay.
Key: 0

Exercise: Returns: the outcome recorded for Cc1cc(C=O)c(C)c2c1[nH]c1ccccc12 in this assay.
Key: 0

Exercise: Returns: the outcome recorded for COc1cccc(-c2nn(-c3ccccc3)cc2-c2ccnc(NCCCO)c2)c1 in this assay.
Key: 0

Exercise: Returns: the outcome recorded for CC(C)(C)c1[nH]nc2c1C(c1cc3ccccc3[nH]c1=O)Nc1cc(C(=O)OCc3ccccc3)ccc1N2 (centres undefined) in this assay.
Key: 0

Exercise: Returns: the outcome recorded for C=C(C)[C@@H]1CC[C@]2(C)[C@H](CC[C@@H]3[C@H]4[C@H]5OC[C@@]4(CCC5(C)C)CC[C@]32C)[C@@]1(C)CCCN in this assay.
Key: 0

Exercise: Returns: the outcome recorded for COc1ccc(C2(Cl)c3ccccc3N(c3ccccc3)c3ccccc32)cc1 in this assay.
Key: 0

Exercise: Returns: the outcome recorded for COc1ccc(/C=C/C(=O)NCCO)cc1 in this assay.
Key: 0

Exercise: Returns: the outcome recorded for NCCn1cc(-c2nc(-c3c[nH]c4ncccc34)cs2)c2cc(F)ccc21 in this assay.
Key: 0

Exercise: Returns: the outcome recorded for O=c1[nH]ncc(Br)c1Br in this assay.
Key: 0

Exercise: Returns: the outcome recorded for COC(=O)[C@]12CC[C@@H](C)[C@H](C)[C@@H]1C1=CC[C@@H]3[C@@]4(C)C[C@@H](O)[C@H](O)[C@@](C)(CO)C4=CC[C@@]3(C)[C@]1(C)CC2 in this assay.
Key: 1

Exercise: Returns: the outcome recorded for C=C1C(=O)O[C@H]2[C@H]1CC/C(COC(=O)N[C@H](Cc1c[nH]c3ccccc13)C(=O)OC)=C\CC[C@@]1(C)O[C@@H]21 in this assay.
Key: 0

Exercise: Returns: the outcome recorded for CC(=O)OCCCCCCn1c2ccccc2c2c3c(c4c5ccccc5n(C)c4c21)C(=O)N(O)C3=O in this assay.
Key: 0

Exercise: Returns: the outcome recorded for CN1CCN(c2nc(-c3cccc4ccccc34)nc3sc4c(c23)CCCCCC4)CC1 in this assay.
Key: 0

Exercise: Returns: the outcome recorded for CC/C(=N/NC(N)=O)c1ccccc1 in this assay.
Key: 0

Exercise: Returns: the outcome recorded for COc1cc(/C=N/Nc2ncnc3c2c(C)nn3-c2ccc(F)cc2)ccc1O in this assay.
Key: 0

Exercise: Returns: the outcome recorded for C=C1C(=O)O[C@H]2[C@H]1CC/C(COC(=O)NCc1c[nH]c3ccccc13)=C\CC[C@@]1(C)O[C@@H]21 in this assay.
Key: 0

Exercise: Returns: the outcome recorded for O=C(N/N=C\c1c(O)ccc2ccccc12)C1CC1 in this assay.
Key: 0

Exercise: Returns: the outcome recorded for O=C1C=C(C(O)c2ccc(O)cc2)C(=O)c2ccccc21 (centres undefined) in this assay.
Key: 0

Exercise: Returns: the outcome recorded for COc1ccc(/C=C(\C#N)c2cc3ccccc3n2S(C)(=O)=O)cc1 in this assay.
Key: 0

Exercise: Returns: the outcome recorded for O=[N+]([O-])c1ccc(/C=N\Nc2ccccc2)cc1 in this assay.
Key: 0

Exercise: Returns: the outcome recorded for CC(Cc1ccco1)C(=O)NC(N)=O (centres undefined) in this assay.
Key: 0

Exercise: Returns: the outcome recorded for Fc1ccc2[nH]cc(-c3nc(-c4c[nH]c5ncccc45)cs3)c2c1 in this assay.
Key: 0

Exercise: Returns: the outcome recorded for C=C(C)[C@@H]1CC[C@]2(C(=O)NNC(=O)c3cccnc3)CC[C@]3(C)[C@H](CC[C@@H]4[C@@]5(C)CCCNC(C)(C)[C@@H]5CC[C@]43C)[C@@H]12 in this assay.
Key: 0

Exercise: Returns: the outcome recorded for Cc1ccc(-c2nc3ccc(Cl)cc3c(=O)n2N2C(=O)CSC2c2ccccc2Cl)cc1 (centres undefined) in this assay.
Key: 0

Exercise: Returns: the outcome recorded for CCCCC[C@H]1CC=C2C(=O)C=C[C@@H]2CC=CCCCC(=O)O[C@@H](CCCCC)CC=C2C(=O)C=C[C@@H]2CC=CCCCC(=O)O[C@@H](CCCCC)CC=C2C(=O)C=C[C@@H]2CC=CCCCC(=O)O1 in this assay.
Key: 1

Exercise: Returns: the outcome recorded for CCCCN1CCCCn2c1nc1c2c(=O)n(C)c(=O)n1C in this assay.
Key: 0

Exercise: Returns: the outcome recorded for Fc1ccc(Nc2ccc3c(OCCCN4CCOCC4)cccc3n2)cc1F in this assay.
Key: 0

Exercise: Returns: the outcome recorded for Cc1cc2nc3c4cc([N+](=O)[O-])cc([N+](=O)[O-])c4n(CCN(C)C)c3nc2cc1C in this assay.
Key: 0

Exercise: Returns: the outcome recorded for N#Cc1cnc2cc(OC[C@@H](O)CO)c(NC(=O)C3CCCC3)cc2c1Nc1ccc(OCc2cccc(F)c2)c(Cl)c1 in this assay.
Key: 1

Exercise: Returns: the outcome recorded for CCCC(=O)N1CCCCC1CC (centres undefined) in this assay.
Key: 0

Exercise: Returns: the outcome recorded for CCC(CC)C(=O)OC(C)COc1ccc(C(C)(C)C)cc1 (centres undefined) in this assay.
Key: 0

Exercise: Returns: the outcome recorded for CC(=O)c1c(C)[nH]c(-c2nc3ccc(N4CCN(C)CC4)cc3[nH]2)c1-c1ccc2c(c1)OCCO2 in this assay.
Key: 0

Exercise: Returns: the outcome recorded for COc1cccc(-c2nn(-c3ccccc3)cc2-c2ccnc(NCCNS(=O)(=O)c3ccccc3)c2)c1 in this assay.
Key: 0

Exercise: Returns: the outcome recorded for Cn1cnc2c1c(=O)n(CCC(=O)Nc1ccc(F)cc1)c(=O)n2C in this assay.
Key: 0

Exercise: Returns: the outcome recorded for O=C(O)/C(=C/c1ccc(O)cc1)c1ccccc1 in this assay.
Key: 0

* * *

Provide the recorded growth for the entries that follow.
system: SF-295 CNS; experiment: NCI-60 one-dose screen, 48 h (100 = growth as untreated, 0 = no growth, -100 = all killed); details: 10 µM unless noted
The panel holds about 83,000 compounds, 20% with a hit somewhere; the sample as a whole holds those more often.
Note: unit % is implicit; provide only the numeric part.

What the record says about C=C(C)[C@@H]1CC[C@]2(C(=O)O)CC[C@]3(C)[C@H](CC[C@@H]4[C@@]5(C)C/C(=C/c6ccc(OC)cc6)C(=O)C(C)(C)[C@@H]5CC[C@]43C)[C@@H]12 : growth is 11.9

What the record says about Cn1c2ccccc2c2c3c(c4c5cccnc5[nH]c4c21)C(=O)N(O)C3=O : growth is 37.6

What the record says about CC1(C)CC[C@]2(C(=O)NCCNCCN)CC[C@]3(C)C(=CC[C@@H]4[C@@]5(C)CCC(=O)C(C)(C)[C@@H]5CC[C@]43C)[C@@H]2C1 : growth is 96.7

What the record says about NCCn1cc(-c2nc(-c3c[nH]c4ncccc34)cs2)c2cc(Br)ccc21 : growth is 102

What the record says about O=C1NC(c2ccc(Cl)c(Cl)c2)=C/C1=C\c1ccccc1 : growth is 52.2

What the record says about Cc1cc2nc3c4cc([N+](=O)[O-])cc([N+](=O)[O-])c4n(CCN(C)C)c3nc2cc1C : growth is 62.9

What the record says about COc1ccc2c(c1)c(-c1nc(-c3cn(C)c4ncccc34)cs1)cn2CCCN1CCCCC1 : growth is 91.6

What the record says about C=C1C(=O)O[C@H]2[C@H]1CC/C(Cn1cc(-c3ccc(OC)cc3)nn1)=C\CC[C@@]1(C)O[C@@H]21 : growth is 88.8

What the record says about Cn1cc(-c2nc(-c3cn(C)c4ncccc34)cs2)c2cc(F)ccc21 : growth is 16.3

What the record says about Nc1ccc(Cl)cn1 : growth is 97.3

What the record says about CC(C)=CCC[C@](C)(O)[C@H]1CC[C@]2(C)[C@@H]1CC[C@@H]1[C@@]3(C)C/C(=C/c4ccc(Br)cc4)C(=O)C(C)(C)[C@@H]3CC[C@]12C : growth is 101

What the record says about OCC(CO)(CCl)CCl : growth is 107

What the record says about N=c1c(S(=O)(=O)c2ccccc2)cc2c(=O)n3ccccc3nc2n1C1CCCC1 : growth is 91.2

What the record says about C=C(C)[C@@H]1CC[C@]2(C(=O)N3CCN(C)CC3)CC[C@]3(C)[C@H](CC[C@@H]4[C@@]5(C)C/C(=C/c6ccc(C(F)(F)F)cc6)C(=O)C(C)(C)[C@@H]5CC[C@]43C)[C@@H]12 : growth is 101

What the record says about Nc1nc2c(c(=O)[nH]1)C(c1ccc3c(c1)OCO3)C=C(C(=O)O)N2 (configuration not stated) : growth is 94.2

What the record says about CCSc1ncnc2c1ncn2C1OC(CO)C(O)C1O (configuration not stated) : growth is 31.4

What the record says about CC(=O)OC[C@]12CC[C@@H](/C(C)=N/O)[C@@H]1[C@H]1CC[C@@H]3[C@@]4(C)CCCNC(C)(C)[C@@H]4CC[C@@]3(C)[C@]1(C)CC2 : growth is 84.5
